test: Cytotoxicity against human MT4 cells assessed as reduction in cell growth measured after 5 days by CellTiter-Glo assay; format: toxicity, cell-based; details: MT4 cells, time 5 day
Answer each item with its documented CC50 at 120 h.
# unit: µM | format: bare number

// CC50 at 120 h lookup, key: `N#C[C@@]1(c2ccc3c(N)ncnn23)O[C@H](CO)[C@@H](O)[C@H]1O`
69

I would be grateful if you could share the reported CC50 at 120 h for `CCC(CC)COC(=O)[C@H](C)N[P@](=O)(OC[C@H]1O[C@@](C#N)(c2ccc3c(N)ncnn23)[C@H](O)[C@@H]1O)Oc1ccccc1` .
1.7

----------
assay: Cmax in dog assessed as prodrug conversion by measuring (2R,3R,4S,5R)-2-(4-aminopyrrolo[2,1-f][1,2,4]triazin-7-yl)-3,4-dihydroxy-5-(hydroxymethyl)tetrahydrofuran-2-carbonitrile at […], po measured upto 24 hrs by LC-MS/MS analysis; type: ADME, organism-based, Canis lupus familiaris; conditions: in vivo
ASSAY READOUT: Cmax (µM)
Please reply with the bare figure in µM and do not write the unit itself.

For the compound shown here, `CC(C)C(=O)OC[C@H]1O[C@@](C#N)(c2ccc3c(N)ncnn23)[C@H](O)[C@@H]1O` , give the reported Cmax.
57.8

----------
experiment: Stability of compound in cynomolgus monkey gastrointestinal S9 fraction assessed as half life at pH 7.4 measured upto 120 mins by LC-MS/MS analysis; format: ADME, subcellular, Macaca fascicularis, Gastrointestinal tract
ASSAY READOUT: half-life

Look at this molecule and give its reported half-life. `CC(C)C(=O)OC[C@H]1O[C@@](C#N)(c2ccc3c(N)ncnn23)[C@H](O)[C@@H]1O`
< 2 min

Report half-life for `CC(=O)OC[C@H]1O[C@@](C#N)(c2ccc3c(N)ncnn23)[C@H](O)[C@@H]1O` please.
38 min

Field request: half-life | item: `CC(C)C(=O)OC[C@H]1O[C@@](C#N)(c2ccc3c(N)ncnn23)[C@H](OC(=O)C(C)C)[C@@H]1OC(=O)C(C)C`
< 2 min

Can you share its half-life? I mean this molecule: `CC(=O)OC[C@H]1O[C@@](C#N)(c2ccc3c(N)ncnn23)[C@H](OC(C)=O)[C@@H]1OC(C)=O`
< 2 min

----------
test system: Hepatocyte; experiment: Cytotoxicity against human primary hepatocytes assessed as reduction in cell growth measured after 5 days by CellTiter-Glo assay; format: toxicity, cell-based; conditions: hepatocytes, 120 h, time 5 day
ASSAY READOUT: CC50 (µM)
Report the figure in µM without appending any unit label.

Checklist item: CC50 tested on Hepatocyte, entry `COc1ccc(C[C@H](N)C(=O)N[C@H]2[C@@H](O)[C@H](n3cnc4c(N(C)C)ncnc43)O[C@@H]2CO)cc1` , value?
1.1

----------
test: Lipophilicity, logD of compound; assay type: physicochemical; conditions: octanol/water; read-out: logD
ASSAY READOUT: logD

So what does the record say about logD for `CC(C)C(=O)OC[C@H]1O[C@@](C#N)(c2ccc3c(N)ncnn23)[C@H](O)[C@@H]1O` ?
< 0.9

----------
assay: Stability of compound in dog gastrointestinal S9 fraction assessed as half life at pH 7.4 measured upto 120 mins by LC-MS/MS analysis; assay type: ADME, subcellular, Canis lupus familiaris, Gastrointestinal tract
Provide the reported half-life of each item.
Report the figure in min without appending any unit label.

Form field: reported half-life of `CC(=O)OC[C@H]1O[C@@](C#N)(c2ccc3c(N)ncnn23)[C@H](OC(C)=O)[C@@H]1OC(C)=O`
16

Which value of half-life has been reported for `CC(=O)OC[C@H]1O[C@@](C#N)(c2ccc3c(N)ncnn23)[C@H](O)[C@@H]1O` in the records?
226

----------
experiment: Stability of compound in dog plasma assessed as half life measured upto 4 hrs by LC-MS/MS analysis; type: ADME, cell-free, Canis lupus familiaris
Please provide measured half-life for the entries that follow.
Give the number; h is assumed, so skip it.

What half-life value was documented for this compound, `CC(C)C(=O)OC[C@H]1O[C@@](C#N)(c2ccc3c(N)ncnn23)[C@H](OC(=O)C(C)C)[C@@H]1OC(=O)C(C)C` ?
3.03

I would be grateful if you could share the reported half-life for `CC(C)C(=O)OC[C@H]1O[C@@](C#N)(c2ccc3c(N)ncnn23)[C@H](O)[C@@H]1O` .
6.87

Returns the measured half-life for the input compound. Input: `CC(=O)OC[C@H]1O[C@@](C#N)(c2ccc3c(N)ncnn23)[C@H](OC(C)=O)[C@@H]1OC(C)=O`
1.85

Would you mind telling me what half-life value was observed for `CC(=O)OC[C@H]1O[C@@](C#N)(c2ccc3c(N)ncnn23)[C@H](O)[C@@H]1O` ?
9.4

----------
test: Stability of compound in human liver S9 fraction assessed as half life at pH 7.4 measured upto 90 mins by LC-MS/MS analysis; format: ADME, subcellular
Provide the reported half-life at […] of each item.

Query (compound): `CC(C)C(=O)OC[C@H]1O[C@@](C#N)(c2ccc3c(N)ncnn23)[C@H](OC(=O)C(C)C)[C@@H]1OC(=O)C(C)C` ; field requested: half-life at […]
< 2 min

Param item = `CC(=O)OC[C@H]1O[C@@](C#N)(c2ccc3c(N)ncnn23)[C@H](OC(C)=O)[C@@H]1OC(C)=O` ; retrieve measured half-life at […].
< 2 min

Given the compound `CC(C)C(=O)OC[C@H]1O[C@@](C#N)(c2ccc3c(N)ncnn23)[C@H](O)[C@@H]1O` , what is its reported half-life at […]?
< 2 min

Given the compound `CC(=O)OC[C@H]1O[C@@](C#N)(c2ccc3c(N)ncnn23)[C@H](O)[C@@H]1O` , what is its reported half-life at […]?
19 min

----------
experiment: Cmax in African green monkey infected with SARS-CoV-2 assessed as prodrug conversion by measuring (2R,3R,4S,5R)-2-(4-aminopyrrolo[2,1-f][1,2,4]triazin-7-yl)-3,4-dihydroxy-5-(hydroxymethyl)tetrahydrofuran-2-carbonitrile at 60 mg/kg, po qd measured after 6 days by LC-MS/MS analysis; assay type: ADME, organism-based, Severe acute respiratory syndrome coronavirus 2; design: dose 60 mg/kg, time 6 day, route po; conditions: in vivo
ASSAY READOUT: Cmax (µM)
Reply numerically in µM, unit not repeated.

Can you share its Cmax? I mean this compound: `CC(C)C(=O)OC[C@H]1O[C@@](C#N)(c2ccc3c(N)ncnn23)[C@H](O)[C@@H]1O`
21

----------
experiment: Stability of compound in human gastrointestinal S9 fraction assessed as half life at pH 7.4 measured upto 120 mins by LC-MS/MS analysis; format: ADME, subcellular, Gastrointestinal tract
ASSAY READOUT: half-life

Data request, read-out half-life, for `CC(C)C(=O)OC[C@H]1O[C@@](C#N)(c2ccc3c(N)ncnn23)[C@H](OC(=O)C(C)C)[C@@H]1OC(=O)C(C)C`
< 2 min

State the recorded half-life for this entry: `CC(=O)OC[C@H]1O[C@@](C#N)(c2ccc3c(N)ncnn23)[C@H](OC(C)=O)[C@@H]1OC(C)=O`
< 2 min

Report half-life for `CC(=O)OC[C@H]1O[C@@](C#N)(c2ccc3c(N)ncnn23)[C@H](O)[C@@H]1O` please.
28 min

I'd like to know its half-life. The compound in question is `CC(C)C(=O)OC[C@H]1O[C@@](C#N)(c2ccc3c(N)ncnn23)[C@H](O)[C@@H]1O`
< 2 min

----------
I'd appreciate it if you could supply half-life values for the items below.
experiment: Stability of compound in cynomolgus monkey plasma assessed as half life measured upto 4 hrs by LC-MS/MS analysis; assay type: ADME, cell-free, Macaca fascicularis

Give the measured half-life of `CC(C)C(=O)OC[C@H]1O[C@@](C#N)(c2ccc3c(N)ncnn23)[C@H](OC(=O)C(C)C)[C@@H]1OC(=O)C(C)C` .
7.2 min

Requested read-out: half-life. Entry: CC(C)C(=O)OC[C@H]1O[C@@](C#N)(c2ccc3c(N)ncnn23)[C@H](O)[C@@H]1O [OBELDESIVIR]
9.7 min

For the molecule `CC(=O)OC[C@H]1O[C@@](C#N)(c2ccc3c(N)ncnn23)[C@H](OC(C)=O)[C@@H]1OC(C)=O` , what half-life is on record?
9.2 min

Entry under review: `CC(=O)OC[C@H]1O[C@@](C#N)(c2ccc3c(N)ncnn23)[C@H](O)[C@@H]1O` . Reported half-life?
146 min

----------
test system: PBMC; experiment: Cytotoxicity against quiescent human PBMC cells assessed as reduction in cell growth measured after 5 days by CellTiter-Glo assay; format: toxicity, cell-based; conditions: pbmc, 120 h, time 5 day
ASSAY READOUT: CC50 (µM)
Give the number; µM is assumed, so skip it.

Return reported CC50; argument: `COc1ccc(C[C@H](N)C(=O)N[C@H]2[C@@H](O)[C@H](n3cnc4c(N(C)C)ncnc43)O[C@@H]2CO)cc1`
5.05

----------
assay: Lipophilicity, logP of compound; format: physicochemical; conditions: octanol/water
ASSAY READOUT: logP

Consider the compound shown here: `[N-]=[N+]=N[C@]1(CO)O[C@@H](n2ccc(N)nc2=O)[C@H](O)[C@@H]1O` What is its recorded logP?
> 2
